# ASSAY_NAME: Natriuretic polypeptide receptor (hNpr1) antagonism - Pilot counterscreen GloSensor control cell line (AID 1347045); also: potency is read from the fitted curve at half-maximal effect
# TEST_CONDITIONS: HEK293 cGMP GloSensor cells, SNP-stimulated luminescence, 20 min; series mostly up to 38.3 µM
# Description: F. Fan, B. F. Binkowski, B. L. Butler, P. F. Stecha, M. K. Lewis, K. V. Wood, Novel genetically encoded biosensors using firefly luciferase. ACS Chem Biol 3, 346-351 (2008). PROTOCOL TABLE (as described by Inglese J, Shamu CE and Guy RK. 2007) […] 7. […] GloSensor baseline pre-read luminescence measured using CCD-based camera (Viewlux). […] 10. […] GloSensor post-SNP luminescence measured using CCD-based camera (Viewlux). […] 1. […] Cells counted with Invitrogen Countess (30,000,000 - 50,000,000 cells/flask). […]
Inconclusive results are not listed. Active and inactive are the calls of the source. Calls follow the shape of the full dose curve.
METRIC_NAME: Potency

>  <COMPOUND>
COc1cc(/C=C(\C#N)C(=O)c2ccc(O)c(O)c2)cc(I)c1O

>  <Potency>
inactive

$$$$
>  <COMPOUND>
C[C@]12C=CC(=O)C=C1CC[C@@H]1C2=CC[C@]2(C)[C@@H](C(=O)CN3CCN(c4cc(N5CCCC5)nc(N5CCCC5)n4)CC3)CC[C@@H]12

>  <Potency>
inactive

$$$$
>  <COMPOUND>
N[C@H](C(=O)O)[C@H]1C[C@@H]1C(=O)O

>  <Potency>
inactive

$$$$
>  <COMPOUND>
O=C(O)c1cccnc1C(=O)O

>  <Potency>
inactive

$$$$
>  <COMPOUND>
COc1cccc(OC)c1OCCNCC1CSc2ccccc2O1 (stereo unspecified)

>  <Potency>
inactive

$$$$
>  <COMPOUND>
NC(N)=NC(N)=Nc1ccccc1

>  <Potency>
inactive

$$$$
>  <COMPOUND>
NC/C=C\C(=O)O

>  <Potency>
inactive

$$$$
>  <COMPOUND>
CCCn1c(=O)c2[nH]c(C3CCCC3)nc2n(CCC)c1=O

>  <Potency>
inactive

$$$$
>  <COMPOUND>
N#Cc1cc([N+](=O)[O-])c2sc(C(N)=O)[n+]([O-])c2c1

>  <Potency>
14.7 µM (active)

$$$$
>  <COMPOUND>
O=c1ccn([C@@H]2O[C@H](COP(=O)(O)OP(=O)(O)O)[C@@H](O)[C@H]2O)c(=O)[nH]1

>  <Potency>
inactive

$$$$

stdin: I am curious: what Potency value has been reported for O=C(O)C1CN(CCCP(=O)(O)O)CCN1 (stereo unspecified) ?
stdout: inactive
